B1: HA-tagged HACE1 wild-type [human] / myc-Rac1 Q61L [not stated] (parent complex)
chain 1: MERAMEQLNRLTRSLRRARTVELPEDNETAVYTLMPMVMADQHRSVSELLSNSKFDVNYAFGRVKRSLLHIAANCGSVECLVLLLKKGANPNYQDISGCTPLHLAARNGQKKCMSKLLEYSADVNICNNEGLTAIHWLAVNGRTELLHDLVQHVSDVDVEDAMGQTALHVACQNGHKTTVQCLLDSGADINRPNVSGATPLYFACSHGQRDTAQILLLRGAKYLPDKNGVTPLDLCVQGGYGETCEVLIQYHPRLFQTIIQMTQNEDLRENMLRQVLEHLSQQSESQYLKILTSLAEVATTNGHKLLSLSSNYDAQMKSLLRIVRMFCHVFRIGPSSPSNGIDMGYNGNKTPRSQVFKPLELLWHSLDEWLVLIATELMKNKRDSTEITSILLKQKGQDQDAASIPPFEPPGPGSYENLSTGTRESKPDALAGRQEASADCQDVISMTANRLSAVIQAFYMCCSCQMPPGMTSPRFIEFVCKHDEVLKCFVNRNPKIIFDHFHFLLECPELMSRFMHIIKAQPFKDRCEWFYEHLHSGQPDSDMVHRPVNENDILLVHRDSIFRSSCEVVSKANCAKLKQGIAVRFHGEEGMGQGVVREWFDILSNEIVNPDYALFTQSADGTTFQPNSNSYVNPDHLNYFRFAGQILGLALNHRQLVNIYFTRSFYKHILGIPVNYQDVASIDPEYAKNLQWILDNDISDLGLELTFSVETDVFGAMEEVPLKPGGGSILVTQNNKAEYVQLVTELRMTRAIQPQINAFLQGFHMFIPPSLIQLFDEYELELLLSGMPEIDVSDWIKNTEYTSGYEREDPVIQWFWEVVEDITQEERVLLLQFVTGSSRVPHGGFANIMGGSGLQNFTIAAVPYTPNLLPTSSTCINMLKLPEYPSKEILKDRLLVALHCGSYGYTMA
chain 2: not shown

# Variants of: B1
# test summary: co-immunoprecipitation (anti-myc IP), quantified; cells co-transfected with myc-Rac1 Q61L and HA-tagged HACE1 mutants; n ≥ 4 biological replicates; parent: 1; read off a plot
reported metric: ratio to parent

query: Name the recorded ratio to parent for chain 1 V140L .
result: ~0.55

query: Name the recorded ratio to parent for chain 1 M114V .
result: ~2.3

query: Name the recorded ratio to parent for chain 1 V140A .
result: ~3.2

query: Name the recorded ratio to parent for chain 1 G175S .
result: ~0.18

query: Name the recorded ratio to parent for chain 1 N174A .
result: ~0.26

query: Name the recorded ratio to parent for chain 1 A204T .
result: ~0.11

query: Name the recorded ratio to parent for chain 1 Q173A .
result: ~0.28

query: Name the recorded ratio to parent for chain 1 G175C .
result: ~0.14
